# tested-on: HIV-1 PR (Human immunodeficiency virus type 1 group M subtype B, UniProt P04585)
# test-details: HIV-protease inhibitory activity assay (FRET peptide substrate)
# particulars: Test Example 1
As shown below, each of these compounds has a reported pIC50 value.
Please note pIC50 is a logarithmic value: minus log10 of concentration in mol/L. Answer with that number alone.

{"compound": "COc1ccc(S(=O)(=O)N(CC(C)C)CC(O)C(Cc2ccc(NCc3ccc(-c4sc5c(c4C(=O)O)CC(C)(C)CC5)o3)cc2)NC(=O)OC2COC3(C)OCCC23)cc1 (stereo not shown)", "tested-on": "HIV-1 PR (Human immunodeficiency virus type 1 group M subtype B, UniProt P04585)", "pIC50": 8.66}

Exercise: Name the reported pIC50 value associated with the compound COc1ccc(S(=O)(=O)N(CC(C)C)CC(O)C(Cc2ccc(N(C)Cc3cc(OC(F)(F)F)ccc3-c3sc4c(c3C(=O)O)CC(C)(C)CC4)cc2)NC(=O)OC2COC3(C)OCCC23)cc1 (stereo not shown)
Key: 7.99

Exercise: // next record COc1ccc(S(=O)(=O)N(CC(C)C)CC(O)C(Cc2ccc(N(C)Cc3cc(N4CC(C)(C)C4=O)ccc3-c3sc4c(c3C(=O)O)CC(C)(C)CC4)cc2)NC(=O)OC2COC3(C)OCCC23)cc1 (stereo not shown)
Key: 8.55

Exercise: // next record COc1ccc(S(=O)(=O)N(CC(C)C)CC(O)C(Cc2ccc(OCc3ccccc3-n3nc4c(c3C(=O)O)CC(C)(C)CC4)cc2)NC(=O)OC2COC3OCCC23)cc1 (stereo not shown)
Key: 9.07

Exercise: // next record COc1ccc(S(=O)(=O)N(CC(C)C)CC(O)C(Cc2ccc(NCc3ccc(C(=O)Nc4sc5c(c4C(=O)O)CC(C)(C)CC5)o3)cc2)NC(=O)OC2COC3(C)OCCC23)cc1 (stereo not shown)
Key: 8.59

Exercise: // next record COc1ccc(S(=O)(=O)N(CC(C)C)CC(O)C(Cc2ccc(N(Cc3nccs3)Cc3ccccc3-c3sc4c(c3C(=O)O)CC(C)(C)CC4)cc2)NC(=O)OC2COC3(C)OCCC23)cc1 (stereo not shown)
Key: 8.43

====

# tested-on: HIV-1 PR (Human immunodeficiency virus type 1 group M subtype B, UniProt P04585)
# test-details: HIV-protease inhibitory activity assay (FRET peptide substrate)
# particulars: Test Example 1
reported-endpoint: IC50 (nM)
Numeric only. Scale: nM

// worked examples, IC50 included
{"compound": "COc1ccc(S(=O)(=O)N(CC(C)C)CC(O)C(Cc2ccc(NCc3cc(OC)cc(-c4sc5c(c4C(=O)O)CC(C)(C)CC5)c3OC)cc2)NC(=O)OC2COC3(C)OCCC23)cc1 (centres unmarked)", "tested-on": "HIV-1 PR (Human immunodeficiency virus type 1 group M subtype B, UniProt P04585)", "IC50 [nM]": 1.92}
{"compound": "COc1ccc(S(=O)(=O)N(CC(C)C)CC(O)C(Cc2ccc(NCc3cc4ccccc4cc3NC(=O)c3sc4c(c3C(=O)O)CC(C)(C)CC4)cc2)NC(=O)OC2COC3(C)OCCC23)cc1 (centres unmarked)", "tested-on": "HIV-1 PR (Human immunodeficiency virus type 1 group M subtype B, UniProt P04585)", "IC50 [nM]": 2.11}

Exercise: Name the reported IC50 value associated with the compound COc1ccc(S(=O)(=O)N(CC(C)C)CC(O)C(Cc2ccc(OC(C)(C)C(=O)NS(=O)(=O)c3cccc(-c4ccc(F)cc4F)c3)cc2)NC(=O)OC2COC3(C)OCCC23)cc1 (centres unmarked)
Key: 1.07

Exercise: // next record COc1ccc(S(=O)(=O)N(CC(C)C)CC(O)C(Cc2ccc(NCc3cccc4c(-c5sc6c(c5C(=O)O)CC(C)(C)CC6)cccc34)cc2)NC(=O)OC2COC3(C)OCCC23)cc1 (centres unmarked)
Key: 13.4

Exercise: // next record COc1ccc(S(=O)(=O)N(CC(C)C)CC(O)C(Cc2ccc(NCc3ccc(-c4sc5c(c4C(=O)O)CC(C)(C)CC5)nc3)cc2)NC(=O)OC2COC3(C)OCCC23)cc1 (centres unmarked)
Key: 1.34

Exercise: // next record COc1ccc(S(=O)(=O)N(CC(C)C)CC(O)C(Cc2ccc(NCc3cc(F)cc(-c4sc5c(c4C(=O)O)CC(C)(C)CC5)c3)cc2)NC(=O)OC2COC3(C)OCCC23)cc1 (centres unmarked)
Key: 1.91

Exercise: // next record COc1ccc(S(=O)(=O)N(CC(C)C)CC(O)C(Cc2ccc(NCCOc3ccc(-c4sc5c(c4C(=O)O)CC(C)(C)CC5)c(C)c3)cc2)NC(=O)OC2COC3(C)OCCC23)cc1 (centres unmarked)
Key: 5.63

Exercise: // next record COc1ccc(S(=O)(=O)N(CC(C)C)CC(O)C(Cc2ccc(NCc3cc(C(F)(F)F)ccc3-n3nc4c(c3C(=O)O)CC(C)(C)CC4)cc2)NC(=O)OC2COC3(C)OCCC23)cc1 (centres unmarked)
Key: 4.1

====

As shown below, each of these compounds has a reported rat_CLt value.
# test-details: Evaluation of total body clearance (CLtot), intravenous administration
# Assay type: in vivo, Sprague-Dawley (SD)
# particulars: rat (SD), intravenous administration 0.5-10 mg/kg; CLtot = dose/AUC
Numeric only. Scale: L/h/kg

// worked examples, rat_CLt included
{"compound": "COc1ccc(S(=O)(=O)N(CC(C)C)CC(O)C(Cc2ccc(NCc3cc(OC)c(OC)cc3C(=O)Nc3sc4c(c3C(=O)O)CC(C)(C)CC4)cc2)NC(=O)OC2COC3(C)OCCC23)cc1 (stereo not shown) [Compound I-541]", "reported-endpoint": "rat_CLt", "result-value": 0.0117}
{"compound": "COc1ccc(S(=O)(=O)N(CC(C)C)CC(O)C(Cc2ccc(NCCc3ccccc3-c3sc4c(c3C(=O)O)CC(C)(C)CC4)cc2)NC(=O)OC2COC3(C)OCCC23)cc1 (stereo not shown) [Compound I-262]", "reported-endpoint": "rat_CLt", "result-value": 0.0206}
{"compound": "COc1ccc(S(=O)(=O)N(CC(C)C)CC(O)C(Cc2ccc(OCc3ccccc3-c3sc4c(c3C(=O)O)CC(C)(C)CC4(C)C)cc2)NC(=O)OC2COC3(C)OCCC23)cc1 (stereo not shown) [Compound I-113]", "reported-endpoint": "rat_CLt", "result-value": 0.0708}
{"compound": "COc1ccc(S(=O)(=O)N(CC(C)C)CC(O)C(Cc2ccc(NCc3cnc4sccc4c3-c3sc4c(c3C(=O)O)CC(C)(C)CC4)cc2)NC(=O)OC2COC3(C)OCCC23)cc1 (stereo not shown) [Compound I-648]", "reported-endpoint": "rat_CLt", "result-value": 0.047}
{"compound": "CC1(C)CCc2sc(NC(=O)c3ccccc3CNc3ccc(CC(NC(=O)OC4COC5(C)OCCC45)C(O)CN(CC4CCCC4)S(=O)(=O)c4ccc5ncsc5c4)cc3)c(C(=O)O)c2C1 (stereo not shown) [Compound I-601]", "reported-endpoint": "rat_CLt", "result-value": 0.00984}

Next compound, please.
Exercise: Name the reported rat_CLt value associated with the compound COc1ccc(S(=O)(=O)N(CC(C)C)CC(O)C(Cc2ccc(NCc3cc4ccccc4nc3-c3sc4c(c3C(=O)O)CC(C)(C)CC4)cc2)NC(=O)OC2COC3(C)OCCC23)cc1 (stereo not shown) [Compound I-652]
Key: 0.0385

====

# tested-on: HIV-1 PR (Human immunodeficiency virus type 1 group M subtype B)
# test-details: HIV-protease inhibitory activity assay (FRET peptide substrate)
# particulars: Test Example 1
Binarize IC50 at 2 nM; below is class 1, at or above is class 0.

{"molecule": "COc1ccc(S(=O)(=O)N(CC(C)C)CC(O)C(Cc2ccc(OCc3ccccc3-c3c(C(=O)O)c4c(n3C)CCCC4)cc2)NC(=O)OC2COC3(C)OCCC23)cc1 (stereo not shown)", "category-label": "class 1"}

# input for lookup
Exercise: Please check: IC50 for COc1ccc(S(=O)(=O)N(CC(C)C)CC(O)C(Cc2ccc(NCc3ncc(-c4sc5c(c4C(=O)O)CC(C)(C)CC5)s3)cc2)NC(=O)OC2COC3(C)OCCC23)cc1 (stereo not shown) , strictly under 2 nM or not?
Key: class 1

====

# tested-on: HIV-1 PR (Human immunodeficiency virus type 1 group M subtype B, UniProt P04585)
# test-details: HIV-protease inhibitory activity assay (FRET peptide substrate)
# particulars: Test Example 1
reported-endpoint: log10 of IC50 (log10 of the value in nM)
The common logarithm of IC50 in nM is what is listed.

// worked examples, log10 of IC50 included
{"compound": "COc1ccc(S(=O)(=O)N(CC(C)C)CC(O)C(Cc2ccc(-c3ccccc3-c3sc4c(c3C(=O)O)CC(C)(C)CC4)cc2)NC(=O)OC2COC3(C)OCCC23)cc1 (centres unmarked)", "result-value": 0.54}
{"compound": "CC1(C)CCc2sc(NC(=O)c3ccccc3CNc3ccc(CC(NC(=O)OC4COC5OCCC45)C(O)CN(CC4CCCC4)S(=O)(=O)c4ccc5ncsc5c4)cc3)c(C(=O)O)c2C1 (centres unmarked)", "result-value": 0.53}
{"compound": "COc1ccc(S(=O)(=O)N(CC(C)C)CC(O)C(Cc2ccc(CN(C)C3CCCCC3c3sc4c(c3C(=O)O)CC(C)(C)CC4)cc2)NC(=O)OC2COC3(C)OCCC23)cc1 (centres unmarked) [Compound I-345]", "result-value": 0.26}
{"compound": "COc1ccc(S(=O)(=O)N(CC2CCCC2)CC(O)C(Cc2ccc(OCc3nc(C)sc3-c3sc4c(c3C(=O)O)CC(C)(C)CC4)cc2)NC(=O)OC2COC3(C)OCCC23)cc1 (centres unmarked)", "result-value": 0.35}
{"compound": "CC(C)CN(CC(O)C(Cc1ccc(OCc2ccccc2-c2sc3c(c2C(=O)O)CC(C)(C)CC3)cc1)NC(=O)OC1COC2(C)OCCC12)S(=O)(=O)c1ccc2nc(N(C)CCc3ccccc3)sc2c1 (centres unmarked)", "result-value": 1.58}
{"compound": "COc1ccc(S(=O)(=O)N(CC(C)C)CC(O)C(Cc2ccc(N(C)Cc3cc(C#N)ccc3-c3sc4c(c3C(=O)O)CC(C)(C)CC4)cc2)NC(=O)OC2COC3(C)OCCC23)cc1 (centres unmarked)", "result-value": 0.41}

Exercise: Name the reported log10 of IC50 value associated with the compound COc1ccc(S(=O)(=O)N(CC(C)C)CC(O)C(Cc2ccc(N3Cc4nc5ccccc5cc4C3=O)cc2)NC(=O)OC2COC3(C)OCCC23)cc1 (centres unmarked)
Key: 0.30

Exercise: // next record COc1ccc(S(=O)(=O)N(CC(C)C)CC(O)C(Cc2ccc(CN(C)c3ccc(-c4sc5c(c4C(=O)O)CC(C)(C)CC5)cc3)cc2)NC(=O)OC2COC3(C)OCCC23)cc1 (centres unmarked)
Key: 0.71

Exercise: // next record CC1(C)CCc2sc(-c3ccc(OCCN(CC(O)C(Cc4ccccc4)NC(=O)OC4COC5(C)OCCC45)S(=O)(=O)c4ccc5ncsc5c4)cc3)c(C(=O)O)c2C1 (centres unmarked)
Key: 0.51

Exercise: // next record COc1ccc(S(=O)(=O)N(CC(C)C)CC(O)C(Cc2ccc(COC3CCCN3c3ccccc3-c3sc4c(c3C(=O)O)CC(C)(C)CC4)cc2)NC(=O)OC2COC3(C)OCCC23)cc1 (centres unmarked)
Key: 0.57

Exercise: // next record COc1ccc(S(=O)(=O)N(CC(C)C)CC(O)C(Cc2ccc(NCc3ccc(-c4sc5c(c4C(=O)O)CC(C)(C)CC5)c(F)c3)cc2)NC(=O)OC2COC3(C)OCCC23)cc1 (centres unmarked)
Key: 0.55
